Values from patent US4410516A

# System: Staphylococcus aureus AP01
Assign MIC to each entry below.

NCC(O)C(=O)N[C@@H]1C[C@H](N)[C@@H](O[C@H]2O[C@H](CN)CC[C@H]2N)C[C@H]1O[C@H]1O[C@H](CO)[C@@H](O)[C@H](N)[C@H]1O (stereo partly drawn) | 0.78 µg/mL
CNC[C@@H]1CC[C@@H](N)[C@@H](O[C@H]2C[C@@H](O[C@H]3O[C@H](CO)[C@@H](O)[C@H](N)[C@H]3O)[C@H](N)C[C@@H]2N)O1 | 25 µg/mL
NCC[C@H](O)C(=O)N[C@@H]1C[C@H](N)[C@@H](O[C@H]2O[C@H](CN)CC[C@H]2N)[C@H](O)[C@H]1O[C@H]1O[C@H](CO)[C@@H](O)[C@H](N)[C@H]1O [Habekacin, reference compound] | 0.78 µg/mL

Could I get MIC for every one of these entries?
1. NCC[C@H](O)C(=O)N[C@@H]1C[C@H](N)[C@@H](O[C@H]2O[C@H](CN)CC[C@H]2N)C[C@H]1O[C@H]1O[C@H](CO)[C@@H](O)[C@H](N)[C@H]1O
2. CNC[C@@H]1CC[C@@H](N)[C@@H](O[C@H]2C[C@@H](O[C@H]3O[C@H](CO)[C@@H](O)[C@H](N)[C@H]3O)[C@H](NC(=O)C(O)CN)C[C@@H]2N)O1 (stereo partly drawn)

1. 0.39 µg/mL
2. < 0.2 µg/mL

Using the record for "CNC[C@@H]1CC[C@@H](N)[C@@H](O[C@H]2C[C@@H](O[C@H]3O[C@H](CO)[C@@H](O)[C@H](N)[C@H]3O)[C@H](NC(=O)[C@@H](O)CCN)C[C@@H]2N)O1" , report its MIC.
0.39 µg/mL

----------
So I've got MIC readings for Salmonella typhi T-63, take a look.
Remember to follow the number with its unit.

Examples with answers:
C[C@H]1O[C@H](O[C@@H]2C[C@H](O[C@H]3O[C@H](CN)CC[C@H]3N)[C@@H](N)C[C@H]2NC(=O)[C@@H](O)CCN)[C@H](O)[C@@H](N)[C@@H]1O | 25 µg/mL
NCC[C@H](O)C(=O)N[C@@H]1C[C@H](N)[C@@H](O[C@H]2O[C@H](CN)CC[C@H]2N)C[C@H]1O[C@H]1O[C@H](CO)[C@@H](O)[C@H](N)[C@H]1O | 25 µg/mL
NCC(O)C(=O)N[C@@H]1C[C@H](N)[C@@H](O[C@H]2O[C@H](CN)CC[C@H]2N)C[C@H]1O[C@H]1O[C@H](CO)[C@@H](O)[C@H](N)[C@H]1O (stereo partly shown) | 50 µg/mL

Could you now consider this next compound?
// query MIC value for entry "CNC[C@@H]1CC[C@@H](N)[C@@H](O[C@H]2C[C@@H](O[C@H]3O[C@H](CO)[C@@H](O)[C@H](N)[C@H]3O)[C@H](N)C[C@@H]2N)O1"
6.25 µg/mL

----------
Could you please report measured MIC for the items listed next?
# Tested on: Serratia SOU

C[C@H]1O[C@H](O[C@@H]2C[C@H](O[C@H]3O[C@H](CN)CC[C@H]3N)[C@@H](N)C[C@H]2NC(=O)[C@@H](O)CCN)[C@H](O)[C@@H](N)[C@@H]1O | 100 µg/mL
CNC[C@@H]1CC[C@@H](N)[C@@H](O[C@H]2C[C@@H](O[C@H]3O[C@H](CO)[C@@H](O)[C@H](N)[C@H]3O)[C@H](NC(=O)[C@@H](O)CCCN)C[C@@H]2N)O1 | 50 µg/mL
CNC[C@@H]1CC[C@@H](N)[C@@H](O[C@H]2C[C@@H](O[C@H]3O[C@H](CO)[C@@H](O)[C@H](N)[C@H]3O)[C@H](N)C[C@@H]2N)O1 | > 100 µg/mL
NCC[C@H](O)C(=O)N[C@@H]1C[C@H](N)[C@@H](O[C@H]2O[C@H](CN)CC[C@H]2N)C[C@H]1O[C@H]1O[C@H](CO)[C@@H](O)[C@H](N)[C@H]1O | 100 µg/mL
CNC[C@@H]1CC[C@@H](N)[C@@H](O[C@H]2C[C@@H](O[C@H]3O[C@H](CO)[C@@H](O)[C@H](N)[C@H]3O)[C@H](NC(=O)C(O)CN)C[C@@H]2N)O1 (stereo partly drawn) | 50 µg/mL

Switching to the query record.
Reported MIC, compound NCC(O)C(=O)N[C@@H]1C[C@H](N)[C@@H](O[C@H]2O[C@H](CN)CC[C@H]2N)C[C@H]1O[C@H]1O[C@H](CO)[C@@H](O)[C@H](N)[C@H]1O (stereo partly drawn) : ____
> 100 µg/mL
